These measurements were taken from patent US20230035798A1.

Molecular target: T1, cynomolgus (Macaca fascicularis) LIGHT, membrane-bound (cynomolgus (Macaca fascicularis), UniProt E9NVF7 1-240)
T1 construct: whole, on cells; also called cynomolgus membrane LIGHT; HEK293FF-cynomolgus LIGHT cells
T1 sequence (E9NVF7 entry or part of it): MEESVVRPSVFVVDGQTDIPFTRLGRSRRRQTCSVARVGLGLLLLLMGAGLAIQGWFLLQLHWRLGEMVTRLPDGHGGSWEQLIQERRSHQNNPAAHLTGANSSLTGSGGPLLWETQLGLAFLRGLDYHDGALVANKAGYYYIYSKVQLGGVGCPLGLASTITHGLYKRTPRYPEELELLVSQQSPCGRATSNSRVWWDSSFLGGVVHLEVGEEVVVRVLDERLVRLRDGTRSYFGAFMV
Experiment: flow cytometry, transiently transfected HEK293FF cells

[
  {
    "binder": "3D12 (antibody, human IgG4, V domains shown, chimeric: mouse variable domains on human IgG4 HC (S-to-P and L-to-E at 248) and human CL; also called Parental 3D12; 3D12 chimeric) VH: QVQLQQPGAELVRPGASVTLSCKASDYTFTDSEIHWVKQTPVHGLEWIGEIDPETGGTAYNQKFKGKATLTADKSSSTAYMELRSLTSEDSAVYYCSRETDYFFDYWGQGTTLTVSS VL: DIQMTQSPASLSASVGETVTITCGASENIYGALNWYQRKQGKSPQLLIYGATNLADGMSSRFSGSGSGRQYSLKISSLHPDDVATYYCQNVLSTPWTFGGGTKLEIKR",
    "units.text": "nM",
    "EC50": 0.3
  }
]
